Target: T1, cynomolgus monkey CD137 (cynomolgus monkey, UniProt Q07011 24-186 (human entry), limits assumed)
T1 construct: Soluble analyte in the Biacore assay; also called cyno CD137
T1 chain: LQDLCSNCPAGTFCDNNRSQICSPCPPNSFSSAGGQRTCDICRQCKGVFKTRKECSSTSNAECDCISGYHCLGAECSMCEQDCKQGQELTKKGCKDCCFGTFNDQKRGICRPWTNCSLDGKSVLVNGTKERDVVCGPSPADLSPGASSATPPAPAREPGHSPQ
Assay: SPR Biacore T200, IgG captured on protein A, antigen as analyte, 25 C;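 also: antigens flowed over a CM3 chip for 120 s association, KD derived from ka and kd, running buffer (ACES, NaCl, Tween20, pH 7.4) served as blank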
Please respond with reported pKd for every item in the list.
pKd field: float, defined as -log10 of concentration (mol/L).

Prompt: Assign pKd to the following record: dBBDu_189 / dBBDu_L116 (antibody, human IgG1, V domains shown, Tested as IgG (human IgG1 constant region, kappa light chain); also called dBBDu189/L116) VH: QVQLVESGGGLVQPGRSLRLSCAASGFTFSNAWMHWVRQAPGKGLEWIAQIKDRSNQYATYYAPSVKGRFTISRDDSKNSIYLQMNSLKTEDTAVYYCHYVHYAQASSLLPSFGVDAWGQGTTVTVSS VL: DIVMTQSPLSLPVTPGEPASISCSSSQELVHANRQIYLHWYQQKPGQAPRLLIYKVANRFPGVPDRFSGSGSGTDFTLKISRVEAEDVGVYYCAQGTQVPFTFGQGTKLEIK
Response: 4.95

Prompt: Assign pKd to the following record: dBBDu_189 / dBBDu_L112 (antibody, human IgG1, V domains shown, Tested as IgG (human IgG1 constant region, kappa light chain); also called dBBDu189/L112) VH: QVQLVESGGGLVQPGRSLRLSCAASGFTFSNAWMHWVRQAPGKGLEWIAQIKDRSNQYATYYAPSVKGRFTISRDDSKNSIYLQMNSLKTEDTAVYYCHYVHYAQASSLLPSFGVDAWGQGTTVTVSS VL: DIVMTQSPLSLPVTPGEPASISCTSDQELVHMNRHTYLHWYQQKPGQAPRLLIYKVYNRFPGVPDRFSGSGSGTDFTLKISRVEAEDVGVYYCAQGTSVPFTFGQGTKLEIK
Response: 5.24

Prompt: Assign pKd to the following record: dBBDu_186 / dBBDu_L108 (antibody, human IgG1, V domains shown, Tested as IgG (human IgG1 constant region, kappa light chain); also called dBBDu186/L108) VH: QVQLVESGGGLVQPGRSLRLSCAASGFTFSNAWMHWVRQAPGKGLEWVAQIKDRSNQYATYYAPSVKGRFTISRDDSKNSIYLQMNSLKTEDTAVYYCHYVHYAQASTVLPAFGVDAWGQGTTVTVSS VL: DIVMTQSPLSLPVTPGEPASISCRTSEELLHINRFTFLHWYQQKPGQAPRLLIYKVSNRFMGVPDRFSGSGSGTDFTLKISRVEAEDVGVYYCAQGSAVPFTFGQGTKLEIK
Response: 4.79

Prompt: Assign pKd to the following record: dBBDu_183 / dBBDu_L072 (antibody, human IgG1, V domains shown, Tested as IgG (human IgG1 constant region, kappa light chain); also called dBBDu183/L072; H183L072) VH: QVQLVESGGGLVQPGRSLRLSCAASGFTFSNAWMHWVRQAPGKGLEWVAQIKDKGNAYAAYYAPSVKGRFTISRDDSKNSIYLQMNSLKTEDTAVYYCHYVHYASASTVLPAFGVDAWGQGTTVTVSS VL: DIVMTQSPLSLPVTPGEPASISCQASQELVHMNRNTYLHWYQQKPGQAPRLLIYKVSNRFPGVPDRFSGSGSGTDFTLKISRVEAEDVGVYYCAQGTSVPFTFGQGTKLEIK
Response: 5.31

Prompt: Assign pKd to the following record: dBBDu_167 / dBBDu.L094 (antibody, human IgG1, V domains shown, Tested as IgG (human IgG1 constant region, kappa light chain); also called dBBDu167/L094; dBBDu_167/L094) VH: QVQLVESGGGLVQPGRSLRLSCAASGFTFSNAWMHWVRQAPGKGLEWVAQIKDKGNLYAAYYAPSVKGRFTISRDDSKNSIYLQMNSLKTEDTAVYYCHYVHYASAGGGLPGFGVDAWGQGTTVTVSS VL: DIVMTQSPLSLPVTPGEPASISCYASEELLHINRHIYLHWYQQKPGQAPRLLIYKVYNRFNGVPDRFSGSGSGTDFTLKISRVEAEDVGVYYCAQGSSVPFTFGQGTKLEIK
Response: 5.16

Prompt: Assign pKd to the following record: dBBDu_186 / dBBDu_L100 (antibody, human IgG1, V domains shown, Tested as IgG (human IgG1 constant region, kappa light chain); also called dBBDu186/L100) VH: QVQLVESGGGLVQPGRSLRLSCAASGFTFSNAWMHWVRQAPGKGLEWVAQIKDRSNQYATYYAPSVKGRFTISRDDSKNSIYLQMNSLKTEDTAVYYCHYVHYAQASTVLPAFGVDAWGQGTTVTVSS VL: DIVMTQSPLSLPVTPGEPASISCSASEELVHINRYIFLHWYQQKPGQAPRLLIYKVYNRFMGVPDRFSGSGSGTDFTLKISRVEAEDVGVYYCGQGSSVPFTFGQGTKLEIK
Response: 4.15
